Assay: chemical genetic growth profiling, strain panel (AID 1159580);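 further: tested at 20 µM; growth read once vehicle control cultures reached saturation at 30 °C; 1 = growth at the plate median or of vehicle wells; lower values mean less growth of the strain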
Conditions: S. cerevisiae deletion strains, growth OD, locus YHR079C, strain IRE1, active compounds read low
Hit rate of the full screen: of about 5,500 compounds, about 2,000 (36%) were called active. Inconclusive results (about 18%) are left out. The list shows a part of the results.
readout: normalized growth
Answers are plain numbers.

Past entries and their recorded results:
>>> endpointresult("COC1=C(OC)C(=O)C(C/C=C(\\C)CC/C=C(\\C)CC/C=C(\\C)CC/C=C(/C)CC/C=C(\\C)CC/C=C(\\C)CC/C=C(\\C)CC/C=C(\\C)CC/C=C(\\C)CCC=C(C)C)=C(C)C1=O")
1.02
>>> endpointresult("CC(=O)O[C@H]1[C@@H]2[C@@H](OC(=O)Cc3ccccc3)[C@@H](C)C[C@]2(OC(C)=O)C(=O)/C(C)=C/[C@H]2[C@H](CC[C@@]13CO3)C2(C)C")
0.981
>>> endpointresult("CC1=C(C/C=C(\\C)CCC[C@H](C)CCC[C@H](C)CCCC(C)C)C(=O)c2ccccc2C1=O")
0.992

Turning now to a further compound:
**Q:** Identify measured normalized growth associated with CC1=C(/C=C/C(C)=C/C=C/C(C)=C/C=C/C=C(C)/C=C/C=C(C)/C=C/C(=O)[C@]2(C)C[C@@H](O)CC2(C)C)C(C)(C)C[C@H](O)C1
**A:** 0.987

* * *

Experiment: chemical genetic growth profiling, strain panel (AID 1159580);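 further: tested at 20 µM; growth read once vehicle control cultures reached saturation at 30 °C; 1 = growth at the plate median or of vehicle wells; lower values mean less growth of the strain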
Conditions: S. cerevisiae deletion strains, growth OD, locus YHR079C, strain IRE1, active compounds read low
In all, about 5,500 compounds went through this assay and about 2,000 (36%) were called active. Not shown: some 18% with an inconclusive outcome. The list shows a part of the results.
Give measured normalized growth for each item. Keep answers brief.
Answers are plain numbers.

Past entries and their recorded results:
>>> endpointresult("COc1cc2c(cc1OC)[C@@H]1C(=O)c3ccc4c(c3O[C@@H]1CO2)C=CC(C)(C)O4")
0.954
>>> endpointresult("COc1ccc2c(c1)OCc1c-2oc2cc(OC)ccc12")
0.951
>>> endpointresult("COc1cc2c(cc1OC)[C@@H]1C(=O)c3ccc(OC)c(CC=C(C)C)c3O[C@@H]1CO2")
1.02
>>> endpointresult("COc1cc2c(cc1OC)C(=O)OC2")
0.984
>>> endpointresult("CC(NCCc1ccc(O)cc1)C(O)c1ccc(O)cc1 (stereo unspecified)")
1.01

Turning now to a further compound:
**Q:** Identify measured normalized growth associated with COc1cc2c(cc1OC)Cc1cc(OC)c(OC)cc1Cc1cc(OC)c(OC)cc1C2
**A:** 1.06

* * *

Assay: chemical genetic growth profiling, strain panel (AID 1159580);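 further: tested at 20 µM; growth read once vehicle control cultures reached saturation at 30 °C; 1 = growth at the plate median or of vehicle wells; lower values mean less growth of the strain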
Settings: S. cerevisiae deletion strains, growth OD, locus YNL298W, strain CLA4 (second series)
In all, about 5,500 compounds went through this assay and about 2,000 (36%) were called active. Another 18% or so got no clear call; they are omitted. Rule as the data show it: active = normalized growth mostly below about 0.91 (no sharp cut-off); inconclusive = no clear call, values can overlap the other calls; inactive = mostly above about 0.92. The list shows a part of the results.
The categories you may choose from are active, inactive

>>> assignedclass("COc1cc(C(F)(F)F)cc(C(F)(F)F)c1C(=O)Nc1cc(C(F)(F)F)cc(C(F)(F)F)c1")
"inactive"
>>> assignedclass("CSc1nnnn1-c1c(C)cccc1C")
"inactive"
>>> assignedclass("O=C(Oc1ccc(C(F)(F)F)cc1[N+](=O)[O-])c1c(F)cccc1F")
"active"

**Q:** Which outcome did this test record for the compound COc1cc2c(cc1OC)CC(=O)OC2 ?
**A:** inactive

**Q:** Which outcome did this test record for the compound CN(C)c1ccc(C(=O)NN)cc1 ?
**A:** inactive

**Q:** Which outcome did this test record for the compound Cc1ccc(C)c(NC(=S)N(CCc2ccccc2)CCc2ccccn2)c1 ?
**A:** inactive

**Q:** Which outcome did this test record for the compound Ic1ccc(I)s1 ?
**A:** inactive

**Q:** Which outcome did this test record for the compound COC(=O)c1sccc1OC(=O)c1c(F)cccc1F ?
**A:** inactive

**Q:** Which outcome did this test record for the compound Cc1ccc(OS(=O)(=O)c2ccc(C#N)cc2)c(Br)c1 ?
**A:** inactive

**Q:** Which outcome did this test record for the compound COc1ccc(OC)c(S(=O)(=O)Nc2ccc(C#N)cc2)c1 ?
**A:** inactive

**Q:** Which outcome did this test record for the compound CCOC(=O)c1cnc2cc(C)nn2c1C ?
**A:** inactive

Data credit: PubChem BioAssay AID1159580
